Target Under Test: recombinant human IL-1 beta (human, UniProt P01584 117-269)
Method Notes: cell-based or functional assay
Recorded Endpoint: IC50 of IL-1 beta-induced IL-6 release from human dermal fibroblasts (pM)
Answer with a number only, understood to be in pM.

Which IC50 of IL-1 beta-induced IL-6 release from human dermal fibroblasts value belongs to DLX2465 (scFv) scFv: EIVMTQSPSTLSASVGDRVIITCQASQSIDNWLSWYQQKPGKAPKLLIYRASTLASGVPSRFSGSGSGAEFTLTISSLQPDDFATYYCQNTGGGVSIAFGQGTKLTVLGGGGGSGGGGSGGGGSGGGGSEVQLVESGGGLVQPGGSLRLSCTASGFSLSSAAMAWVRQAPGKGLEWVGIIYDSASTYYASWAKGRFTISRDTSKNTVYLQMNSLRAEDTAVYYCARERNIFSGDMDLWGQGTLVTVSS ? 4
